FYI, the data here is from patent US10538555B2.

Below: a set of entries, each annotated with reported IC50.
# SYSTEM UNDER TEST: Human PD-L1/PD-1 (Homo sapiens)
# Construct: TVMV protease cleavage site (C); made in house; host or cells: HEK293T cells
# Sequence (Q9NZQ7 with tags, fused parts or gaps): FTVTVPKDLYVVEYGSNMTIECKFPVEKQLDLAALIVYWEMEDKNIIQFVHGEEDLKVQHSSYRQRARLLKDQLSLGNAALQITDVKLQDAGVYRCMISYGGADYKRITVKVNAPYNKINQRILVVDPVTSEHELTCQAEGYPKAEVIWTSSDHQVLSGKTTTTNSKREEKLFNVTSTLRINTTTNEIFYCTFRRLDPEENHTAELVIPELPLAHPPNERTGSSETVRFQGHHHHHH
# PROTOCOL: HTRF Human PD-L1/PD-1 binding assay (PD-1-Ig/PD-L1-His)
# ASSAY CONDITIONS: PD-L1-His 10 nM, PD-1-Ig 20 nM; class symbol; read-out: HTRF Human PD-L1/PD-1 Binding Assay IC50 Range
Where a SMILES comes first, the peptide text is derived from it. Bridges are numbered along the chain shown (N, C = ends). [ ]: non-standard residue; d: D form. ξ: configuration not given here. Phe(4-F) = N[C@@H](Cc1ccc(F)cc1)C(=O)O; Hyp = O=C(O)[C@@H]1C[C@@H](O)CN1; NMeF = CN[C@@H](Cc1ccccc1)C(=O)O; NMeNle = CCCC[C@H](NC)C(=O)O; dNle = CCCC[C@@H](N)C(=O)O; NMeA = CN[C@@H](C)C(=O)O; Orn = NCCC[C@H](N)C(=O)O; ξC = NC(CS)C(=O)O

Use these answered entries as a reference point.
## Task Fill in: IC50 of CCCC[C@H]1C(=O)N[C@@H](CC(N)=O)C(=O)N2CCC[C@H]2CN[C@@H](CO)C(=O)N[C@@H](CCO)C(=O)N2CCC[C@H]2C(=O)N[C@@H](Cc2c[nH]c3ccccc23)C(=O)N[C@@H](CN)C(=O)N[C@@H](Cc2c[nH]c3ccccc23)C(=O)N(C)[C@@H](C)C(=O)N(C)[C@@H](C)C(=O)N[C@@H](CCCNC(=N)N)C(=O)NC(C(=O)NCC(N)=O)CSCC(=O)N[C@@H](Cc2ccc(O)cc2)C(=O)N1C (stereo partly shown) is ___
## Result 1000 to 10000 nM

## Task Next: CCCC[C@H]1NC(=O)[C@H](Cc2c[nH]c3ccccc23)NC(=O)[C@H](CO)NC(=O)[C@H](Cc2c[nH]c3ccccc23)NC(=O)[C@@H]2C[C@@H](O)CN2C(=O)[C@H](CCCN)NC(=O)[C@H](Cc2cnc[nH]2)NC(=O)[C@@H]2CCCN2C(=O)[C@H](CC(N)=O)NC(=O)[C@H](C)N(C)C(=O)[C@H](Cc2ccc(O)cc2)NC(=O)CSCC(C(=O)NCC(N)=O)NC(=O)[C@H](CCC(=O)O)NC(=O)[C@H](CCCC)N(C)C1=O (stereo partly shown) [Example 10129] ({CH2CO}-Y[NMeA]NPH[Orn][Hyp]WSW[dNle][NMeNle]E[ξC]G-NH2; thioether N-14)
## Result 1000 to 10000 nM

## Task Lookup CCCC[C@H]1C(=O)N[C@@H](CCC(N)=O)C(=O)N2CCC[C@@H]2C(=O)N[C@@H](Cc2c[nH]c3ccccc23)C(=O)N[C@@H](Cc2ccc(O)cc2)C(=O)N[C@@H](CC(C)C)C(=O)N[C@H](C(=O)NCC(N)=O)CSCC(=O)N[C@@H](Cc2ccc(F)cc2)C(=O)N(C)[C@@H](Cc2ccccc2)C(=O)N(C)[C@@H](CCCC)C(=O)N2CCC[C@@H]2C(=O)N[C@@H](CC(=O)O)C(=O)N[C@@H](C(C)C)C(=O)N1C [Example 9215] ({CH2CO}-[Phe(4-F)][NMeF][NMeNle][dP]DV[NMeNle]Q[dP]WYLCG-NH2; thioether N-13)
## Result 10 to 99.9 nM

More entries:
## Task I'd like to know its IC50. The molecule in question is CCCC[C@H]1C(=O)N(C)[C@@H](CCCC)C(=O)N[C@@H](C)C(=O)N[C@H](C(=O)NCC(N)=O)CSCC(=O)N[C@@H](Cc2ccc(O)cc2)C(=O)N(C)[C@@H](C)C(=O)N[C@@H](CC(=O)O)C(=O)N2CCC[C@H]2C(=O)N[C@@H](Cc2cnc[nH]2)C(=O)N[C@@H](CCCCN)C(=O)N2C[C@H](O)C[C@H]2C(=O)N[C@@H](Cc2c[nH]c3ccccc23)C(=O)N[C@@H](CO)C(=O)N[C@@H](Cc2c[nH]c3ccccc23)C(=O)N1C [Example 1247] ({CH2CO}-Y[NMeA]DPHK[Hyp]WSW[NMeNle][NMeNle]ACG-NH2; thioether N-14)
## Result 10 to 99.9 nM
